ASSAY TARGET: ALK2 (Homo sapiens (Human), UniProt Q04771)
Sequence (Q04771 21-509): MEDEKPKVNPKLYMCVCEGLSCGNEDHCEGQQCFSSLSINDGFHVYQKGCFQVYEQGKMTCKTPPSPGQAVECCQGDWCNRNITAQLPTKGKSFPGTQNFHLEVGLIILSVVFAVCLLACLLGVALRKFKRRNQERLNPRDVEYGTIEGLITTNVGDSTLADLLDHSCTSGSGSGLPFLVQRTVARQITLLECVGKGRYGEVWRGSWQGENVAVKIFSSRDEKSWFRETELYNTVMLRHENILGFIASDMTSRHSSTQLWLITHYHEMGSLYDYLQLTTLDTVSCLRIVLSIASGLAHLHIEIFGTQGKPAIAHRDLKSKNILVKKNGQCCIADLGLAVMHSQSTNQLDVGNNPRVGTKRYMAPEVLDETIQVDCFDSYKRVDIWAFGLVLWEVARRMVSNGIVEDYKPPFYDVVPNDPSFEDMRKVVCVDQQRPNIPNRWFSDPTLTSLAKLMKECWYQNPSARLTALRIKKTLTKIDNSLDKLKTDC
Measured IC50 values are reported for all entries that follow.

## Task Specify IC50 for c1ccc(C2CCCN2c2nc(Nc3cn(C4CC4)cn3)c3cccn3n2)nc1 (centres unmarked) [Compound 27a] and stop.
## Result 100 to 1000 nM

## Task Specify IC50 for COc1cc(-n2cnc(Nc3nc(N4CCN(C)CC4)nn4cccc34)c2)cc(OC)c1OC [Compound 334a] and stop.
## Result < 100 nM

## Task Specify IC50 for OC[C@@H]1CCCN1c1nc(Nc2cn(-c3cc[nH]n3)cn2)c2cccn2n1 [Compound 71c] and stop.
## Result < 100 nM

## Task Specify IC50 for COc1cc(-n2cnc(Nc3nc(N4CCC[C@H]4C(N)=O)nc4sc(CN5CCOCC5)cc34)c2)cc(OC)c1OC [Compound 407b] and stop.
## Result < 100 nM

## Task Specify IC50 for COc1cc(-n2cnc(Nc3nc(N4CCC[C@H]4CO)nc4c3CCCC4)c2)cc(OC)c1OC [Compound 296a] and stop.
## Result < 100 nM

## Task Specify IC50 for OC[C@@H]1CCCN1c1nc(Nc2cn(-c3ccc(Cl)cc3)cn2)c2cccn2n1 [Compound 49c] and stop.
## Result < 100 nM

## Task Specify IC50 for COc1cc(-n2cnc(Nc3nc(-c4ccccc4C(N)=O)nn4cccc34)c2)cc(OC)c1OC [Compound 135a] and stop.
## Result < 100 nM

## Task Specify IC50 for c1ccc(C2CCCN2c2nc(Nc3cn(C4CC4)cn3)c3cccn3n2)cc1 (centres unmarked) [Compound 30a] and stop.
## Result 100 to 1000 nM

---

Quick note: these are pIC50 numbers for system: ALK2 (Homo sapiens (Human))
pIC50: −log10 of the molar value.

Consider the following illustrative entries.
COc1cc(-n2cnc(Nc3nc4c(c(N5CCC[C@H]5C(N)=O)n3)CCNC4)c2)cc(OC)c1OC [Compound 194c] : > 7.00
COc1cc(-n2cnc(Nc3nc(N4CCC[C@H]4CO)c4c(C)nn(C5CCCCO5)c4n3)c2)cc(OC)c1OC (stereo partly shown) [Compound 402b] : > 7.00
CCOc1ccc(-n2cnc(Nc3nc(N4CCC[C@H]4CO)c4cccn4n3)c2)cc1OCC [Compound 256d] : < 6.00

Now for a further molecule.
## Task Name the value of pIC50 reported for COc1cc(-n2cnc(Nc3nc(N4CCC[C@H]4CO)nc4cc(N5CCC[C@H]5CO)ccc34)c2)cc(OC)c1OC [Compound 269b] when tested on ALK2 (Homo sapiens (Human)).
## Result > 7.00

---

Quick note: these are pIC50 numbers for system: ALK2 (Homo sapiens (Human))
pIC50: −log10 of the molar value.

Consider the following illustrative entries.
COc1cc(-n2cnc(Nc3nc(N4CCC[C@H]4C(N)=O)nc4c3ccn4S(=O)(=O)c3ccc(C)cc3)c2)cc(OC)c1OC [Compound 142a] : > 7.00
COc1cc(-n2cnc(Nc3cc4ccccc4c(N4CCC[C@@H]4CO)n3)c2)cc(OC)c1OC [Compound 369b] : 6.00 to 7.00
COc1cc(-n2cnc(Nc3nc(N4CCC[C@H]4C(N)=O)nc4c3c(C)nn4C3CCCCO3)c2)cc(OC)c1OC (stereo partly shown) [Compound 401a] : < 6.00
COc1cc(-n2cnc(Nc3nc(N4CCC[C@@H]4CO)c4ccsc4n3)c2)cc(OC)c1OC [Compound 309b] : > 7.00
COc1cc(-n2cnc(Nc3nc(N4CCC[C@H]4CO)nc4c3CN(Cc3ccccc3)CC4)c2)cc(OC)c1OC [Compound 149c] : 6.00 to 7.00
OC[C@@H]1CCCN1c1nc(Nc2cn(-c3cn(C4CCCC4)cn3)cn2)c2cccn2n1 [Compound 451d] : 6.00 to 7.00

Now for a further compound.
## Task Name the value of pIC50 reported for COc1cc(-n2cnc(Nc3nc(N4CCC[C@H]4CO)c4ccn(C(C)C)c4n3)c2)cc(OC)c1OC [Compound 472c] when tested on ALK2 (Homo sapiens (Human)).
## Result > 7.00

---

pIC50: −log10 of the molar value.
Quick note: these are pIC50 numbers for system: ALK2 (Homo sapiens (Human), UniProt Q04771)

## Task Specify pIC50 for COc1cc(-n2cnc(Nc3cc(C(=O)N4CCC[C@@H](N)C4)cc4ccoc34)c2)cc(OC)c1OC [Compound 413b] and stop.
## Result 6.00 to 7.00

## Task Specify pIC50 for c1ccc(C2CCCN2c2nc(Nc3cn(C4CCCCC4)cn3)c3cccn3n2)nc1 (stereo not shown) [Compound 29a] and stop.
## Result 6.00 to 7.00

## Task Specify pIC50 for COc1cc(-n2cnc(Nc3nc(N4CCC[C@H]4C(N)=O)nc4sc(CN5CCC(O)CC5)cc34)c2)cc(OC)c1OC [Compound 404b] and stop.
## Result > 7.00

## Task Specify pIC50 for OC[C@@H]1CCCN1c1nc(Nc2cn(-c3ccc(F)c(F)c3)cn2)c2cccn2n1 [Compound 128c] and stop.
## Result > 7.00

---

ASSAY TARGET: ALK2 (Homo sapiens (Human), UniProt Q04771)
pIC50: −log10 of the molar value.
Measured pIC50 values are reported for all entries that follow.

## Task Name the value of pIC50 reported for COc1cc(-n2cnc(Nc3nc(N4CCC(F)(F)C4)nc4ccoc34)c2)cc(OC)c1OC [Compound 260a] when tested on ALK2 (Homo sapiens (Human), UniProt Q04771).
## Result > 7.00

## Task Name the value of pIC50 reported for COc1cc(-n2cnc(Nc3nc(N4CCC[C@H]4CO)nc4c3ncn4C)c2)cc(OC)c1OC [Compound 386c] when tested on ALK2 (Homo sapiens (Human), UniProt Q04771).
## Result > 7.00

## Task Name the value of pIC50 reported for OC[C@@H]1CCCN1c1nc(Nc2cn(-c3cnc4ccccc4c3)cn2)c2cccn2n1 [Compound 38c] when tested on ALK2 (Homo sapiens (Human), UniProt Q04771).
## Result > 7.00

## Task Name the value of pIC50 reported for COc1cc(-n2cnc(Nc3nc(N4CCC[C@H]4CO)nn4c(CN5CCN(C6CC6)CC5)ccc34)c2)cc(OC)c1OC [Compound 106b] when tested on ALK2 (Homo sapiens (Human), UniProt Q04771).
## Result > 7.00

## Task Name the value of pIC50 reported for COc1cc(-n2cnc(Nc3nc(N4CCC[C@H]4CO)nn4c(CNC(C)C)ccc34)c2)cc(OC)c1OC [Compound 129b] when tested on ALK2 (Homo sapiens (Human), UniProt Q04771).
## Result > 7.00

## Task Name the value of pIC50 reported for COc1cc(-n2cnc(Nc3nc(N4CCC[C@H]4CO)c4ccccc4n3)c2)cc(OC)c1OC [Compound 115b] when tested on ALK2 (Homo sapiens (Human), UniProt Q04771).
## Result > 7.00

## Task Name the value of pIC50 reported for OC[C@@H]1CCCN1c1nc(Nc2cn(-c3ccccc3)cn2)c2occc2n1 [Compound 14b] when tested on ALK2 (Homo sapiens (Human), UniProt Q04771).
## Result > 7.00

## Task Name the value of pIC50 reported for COc1cc(OC)cc(-n2cnc(Nc3nc(N4CCC[C@H]4C(N)=O)nn4cccc34)c2)c1 [Compound 131a] when tested on ALK2 (Homo sapiens (Human), UniProt Q04771).
## Result > 7.00

## Task Name the value of pIC50 reported for COc1cc(-n2cnc(Nc3nc(N4CCCC4)nn4cccc34)c2)cc(OC)c1OC [Compound 156a] when tested on ALK2 (Homo sapiens (Human), UniProt Q04771).
## Result > 7.00

## Task Name the value of pIC50 reported for Nc1n[nH]c2ccccc12 [Compound 353a, 1H-indazol-3-amine] when tested on ALK2 (Homo sapiens (Human), UniProt Q04771).
## Result < 6.00

## Task Name the value of pIC50 reported for COc1cc(-n2cnc(Nc3nc(N4CCC[C@@H]4CO)nn4c(CN5CCCCC5)ccc34)c2)cc(OC)c1OC [Compound 348a] when tested on ALK2 (Homo sapiens (Human), UniProt Q04771).
## Result > 7.00

## Task Name the value of pIC50 reported for COc1cc(-n2cnc(Nc3nc(N4CCCC4)nc4c3CCNC4)c2)cc(OC)c1OC [Compound 184b] when tested on ALK2 (Homo sapiens (Human), UniProt Q04771).
## Result > 7.00

## Task Name the value of pIC50 reported for COc1cncc(-n2cnc(Nc3nc(N4CCC[C@H]4CO)c4cccn4n3)c2)c1 [Compound 228d] when tested on ALK2 (Homo sapiens (Human), UniProt Q04771).
## Result 6.00 to 7.00

## Task Name the value of pIC50 reported for CN1CCN(c2nc(Nc3cn(C)cn3)c3cccn3n2)CC1 [Compound 34a] when tested on ALK2 (Homo sapiens (Human), UniProt Q04771).
## Result < 6.00

## Task Name the value of pIC50 reported for c1ccc(-n2cnc(Nc3nc(N4CCCC4c4ccccn4)nn4cccc34)c2)cc1 (stereo not shown) when tested on ALK2 (Homo sapiens (Human), UniProt Q04771).
## Result 6.00 to 7.00
